TARGET_UNDER_TEST: human CCR2 (CC-Chemokine Receptor 2) (human, UniProt P41597 1-374)
Sequence (P41597 whole entry): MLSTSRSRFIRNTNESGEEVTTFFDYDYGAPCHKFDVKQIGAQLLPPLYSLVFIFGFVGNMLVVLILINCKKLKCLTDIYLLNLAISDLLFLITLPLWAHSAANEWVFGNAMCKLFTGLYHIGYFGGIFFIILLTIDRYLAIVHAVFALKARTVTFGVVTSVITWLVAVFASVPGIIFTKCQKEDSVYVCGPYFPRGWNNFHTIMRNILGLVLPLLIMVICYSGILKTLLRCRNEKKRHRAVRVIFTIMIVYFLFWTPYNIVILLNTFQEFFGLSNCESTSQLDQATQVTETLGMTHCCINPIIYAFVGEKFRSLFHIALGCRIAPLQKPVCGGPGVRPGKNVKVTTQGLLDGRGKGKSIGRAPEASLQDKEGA
MEASUREMENT_PROTOCOL: cell-based or functional assay
OUTCOME_MEASURE: IC50 in calcium flux assay using human THP-1 cells, ligand MCP-3 (22 nM)

{"columns": ["BINDER", "MEASURED_RESULT"],
 "data": [
  ["1G11 (antibody, human IgG1, V domains shown) VH: EVQLVESGAEVKKPGASVKVSCKASGYIFTGYYIHWVRQAPGQGLEWMGWINPNNGVTKYAEKFQGRVTMTRDTSITTAYMDLSRLRSDDTAIYYCATGGFEYWGQGTLVTVSS VL: LPVLTQPPSVSKGLRQTATLTCTGNSNNVGNQGAAWLQQHQGQPPKLLSYRNHNRPSGVSERFSPSRSGDTSSLTITGLQPEDEADYYCLAWDSSLRAFVFGTGTKLTVL", "250 pM"]
]}
